Taken from the FLAb antibody collection.

Exercise: for every item that follows, state its recorded Tm.
# EXPERIMENT_NOTES: melting temperature
# EXPERIMENTAL_CONTEXT: DSF (SYPRO)
Answer with the number, then the unit.

Look over these answered cases.
IN: Specify Tm for QVQLQESGGGSVQAGGSLRLSCESSGMTFSVYNLGLRQAPGQECELSTITRDGSTDYADSMKGRFTISRDNAKNTMYLQMTSLKPDDTAVYYCAAGVGVVDCTEGQGTQVTVSS and stop.
OUT: 51.8 °C

IN: Specify Tm for QVQLQESGGGSVQAGGSLRLSCAASGYTYTMGWFRQAPGKEREGVTIIYTGYDNIVYADSVKGRFTISRDNAKNTVYLQMNNLKPEDTAMYHCAAATRGLPRSYFDPGWYDSWGQGTQVTVSS and stop.
OUT: 62.5 °C

IN: Specify Tm for QVQLQESGGGSVQAGGSLRLSCAASGWTYSTATMGWYRQAPGKERELVSSIFSDENTYYKDSVKGRFTISRDAAKNTVYLQMNSLKPEDTAMYYCYIRPTTSLANWRWGQGTQVTVSS and stop.
OUT: 59.7 °C

IN: Specify Tm for QVKLEESGGGLVQAGGSLRLSCAASERTFSRYPVAWFRQAPGAEREFVAVISSTGRSTYYADSVKGRFTISRDNAKVTVYLQMNNLKREDTAVYFCAVNSKRRRLQDPNEYDYWGQGTQVTVSSGSEQKLISEEDLNHHHHHH and stop.
OUT: 81.6 °C

IN: Specify Tm for QVKLEESGGGLVQAGGSLRLSCAASERTFSRYPVAWFRQAPGAEREFVAVISSTGTSTYYADSVKGRFTISRDNAKVTVYLQMNNLKREDTAVYFCAVNSQRKRLQDPNEYDYWGQGTQVTVSSGSEQKLISEEDLNHHHHHH and stop.
OUT: 78.5 °C

IN: Specify Tm for QVKLEESGGGLVQAGGSLRLSCAASERTFSRYPVAWFRQAPGAEREFVAVISSTGTSTYYADSVKGRFTISRDNAKVTVYLQMNNLKREDTAVYFCAVNSQRTWLQDPNEYDYWGQGTQVTVSSGSEQKLISEEDLNHHHHHH and stop.
OUT: 77.3 °C

IN: Specify Tm for QVQLQESGGGSVQAGGSLKLSCDASTYTYGGKCMGWFRQAPGKEREFVAFIESDGRTSYADSVKGRFTISQDDAKNTVYLQMNSLKPEDTSMYYCKTAAGAFCGTRSYGFWGQGTQVTVSS and stop.
OUT: 57.2 °C

IN: Specify Tm for QVQLVESGGGSVQAGGSLRLSCAASGSISSITYLGWFRQAPGKEREGVAALSTSSGTTYYADSVKGRFTVSLDNAENTVYLQMNSLKPEDTALYYCAAASSGSSSPLSSSSYTYWGQGTQVTVSS and stop.
OUT: 95 °C

For each of the items listed, what is its Tm?
1. QVKLEESGGGLVQAGGSLRLSCAASERTFSRYPVAWFRQAPGAEREFVAVISSTGTSTYYADSVKGRFTISRDNAKVTVYLQMNNLKREDTAVYFCAVNSQRWRLQDPNEYDYWGQGTQVTVSSGSEQKLISEEDLNHHHHHH
2. QVKLEESGGGLVQAGGSLRLSCAASERTFSRYPVAWFRQAPGAEREFVAVISSTGTSTYYADSVKGRFTISRDNAKVTVYLQMNNLKREDTAVYFCAVNSQRTRLQDPREYDYWGQGTQVTVSSGSEQKLISEEDLNHHHHHH

OUT:
1: 77.5 °C; 2: 77.6 °C
